From: patent US8697732B2

# study_system: recombinant human S1P1 receptor (Homo sapiens)
# Sequence (P21453 whole entry): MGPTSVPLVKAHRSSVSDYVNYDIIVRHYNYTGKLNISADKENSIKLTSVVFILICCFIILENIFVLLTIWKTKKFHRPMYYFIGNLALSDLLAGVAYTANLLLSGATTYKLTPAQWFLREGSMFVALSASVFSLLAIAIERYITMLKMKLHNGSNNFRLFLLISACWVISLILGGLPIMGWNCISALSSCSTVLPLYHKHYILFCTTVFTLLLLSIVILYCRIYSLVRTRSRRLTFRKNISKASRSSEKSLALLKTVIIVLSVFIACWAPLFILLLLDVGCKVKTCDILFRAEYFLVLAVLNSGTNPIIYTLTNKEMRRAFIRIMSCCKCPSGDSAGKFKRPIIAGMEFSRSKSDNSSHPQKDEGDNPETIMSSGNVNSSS
# procedure_details: GTPγS assay to determine EC50 values
# condition_description: 35S-GTPγS binding, membrane preparations of CHO cells expressing recombinant human S1P1 receptor
Provide the recorded EC50 for the entries that follow.
Give a bare numeral; the unit nM is implied.

Query: For the record Cc1cc(-c2nnc(-c3sc(C)c4c3C[C@@H]3[C@H]4C3(C)C)o2)cc(C)n1 [Example 8] , what value of EC50 is listed for recombinant human S1P1 receptor (Homo sapiens)?
Response: 3.4

Query: For the record CCc1cc(C=CC(=O)c2sc(C)c3c2CC2C3C2(C)C)cc(C)n1 (stereo not shown) [Example 1] , what value of EC50 is listed for recombinant human S1P1 receptor (Homo sapiens)?
Response: 1.3

Query: For the record CCc1cc(-c2noc(-c3sc(C)c4c3CC3C4C3(C)C)n2)cc(C)n1 (stereo not shown) [Example 14] , what value of EC50 is listed for recombinant human S1P1 receptor (Homo sapiens)?
Response: 3.7

Query: For the record CCc1cc(CCC(=O)c2sc(CC)c3c2CCC(C)(C)C3)cc(C)n1 [Example 4] , what value of EC50 is listed for recombinant human S1P1 receptor (Homo sapiens)?
Response: 4.6
